Every entry's value here was drawn from patent US20180362585A1.

- Tested on: T1, human plasma Kallikrein (human, UniProt P03952 20-638)
- T1 construct: also called hPK; human PK
- T1 sequence (P03952 20-638 limits assumed): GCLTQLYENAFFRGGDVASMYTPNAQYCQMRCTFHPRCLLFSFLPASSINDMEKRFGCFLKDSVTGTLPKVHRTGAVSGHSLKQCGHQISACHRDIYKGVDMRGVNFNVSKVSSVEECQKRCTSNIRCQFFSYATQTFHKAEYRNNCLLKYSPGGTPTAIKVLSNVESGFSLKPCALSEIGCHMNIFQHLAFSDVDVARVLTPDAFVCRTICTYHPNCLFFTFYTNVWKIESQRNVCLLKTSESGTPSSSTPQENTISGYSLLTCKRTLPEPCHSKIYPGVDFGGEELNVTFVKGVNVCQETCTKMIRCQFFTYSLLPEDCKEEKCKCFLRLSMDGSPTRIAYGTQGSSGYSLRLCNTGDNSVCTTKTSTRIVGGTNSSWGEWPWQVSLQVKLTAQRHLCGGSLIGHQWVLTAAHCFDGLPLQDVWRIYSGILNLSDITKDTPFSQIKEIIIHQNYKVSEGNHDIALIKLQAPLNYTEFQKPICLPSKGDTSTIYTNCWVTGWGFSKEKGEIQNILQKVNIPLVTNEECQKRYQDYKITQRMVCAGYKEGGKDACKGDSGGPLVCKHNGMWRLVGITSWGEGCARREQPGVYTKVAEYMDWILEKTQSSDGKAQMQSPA
- Measurement protocol: phage binding assay
Numbered stars: 1 amine (or outer) side, 2 acyl side, 3 side chain; on linkers, the order of the positions; unused ones are H or OH. Bridge positions count the residues as written; N and C are the ends. Ends that are not written are not given here. TBMB = c1c(C[*:1])cc(C[*:3])cc1C[*:2]
Exercise: for every item that follows, state its recorded BINDING ASSAY SIGNAL.
Give bare numbers.

For orientation, consider the following solved cases.
CAWPARCTHVDLC (linker 1-7-13 via TBMB, on phage) :: 82
CRWPARCTHQDLC (linker 1-7-13 via TBMB (inferred), on phage) :: 73
CQWPARCMHQELC (linker 1-7-13 via TBMB (inferred), on phage) :: 73

Quick batch: BINDING ASSAY SIGNAL for everything below.
1. CHWPARCMHQDLC (linker 1-7-13 via TBMB, on phage)
2. CTWPARCTHTDLC (linker 1-7-13 via TBMB, on phage)
3. CSWPARCTHADLC (linker 1-7-13 via TBMB, on phage)
4. CTWPARCTHQAFC (linker 1-7-13 via TBMB, on phage)

A.
71
88
100
59

Required: BINDING ASSAY SIGNAL, one value per binder below.
1. CQWPARCTHSDLC (linker 1-7-13 via TBMB (inferred), on phage)
2. CAWPARCTHQTMC (linker 1-7-13 via TBMB, on phage)
3. CDWPARCMHQEFC (linker 1-7-13 via TBMB, on phage)
4. CAWPARCTHTDFC (linker 1-7-13 via TBMB, on phage)
5. CLWPARCTHADLC (linker 1-7-13 via TBMB, on phage)
6. CMWPARCMHQDLC (linker 1-7-13 via TBMB (inferred), on phage)
7. CSWPARCTHSDLC (linker 1-7-13 via TBMB, on phage)

A.
74
61
63
80
74
79
59
